Provenance of the data: ChEMBL document CHEMBL3616389

target: D-aspartate oxidase (Homo sapiens)
Sequence (Q99489 whole entry): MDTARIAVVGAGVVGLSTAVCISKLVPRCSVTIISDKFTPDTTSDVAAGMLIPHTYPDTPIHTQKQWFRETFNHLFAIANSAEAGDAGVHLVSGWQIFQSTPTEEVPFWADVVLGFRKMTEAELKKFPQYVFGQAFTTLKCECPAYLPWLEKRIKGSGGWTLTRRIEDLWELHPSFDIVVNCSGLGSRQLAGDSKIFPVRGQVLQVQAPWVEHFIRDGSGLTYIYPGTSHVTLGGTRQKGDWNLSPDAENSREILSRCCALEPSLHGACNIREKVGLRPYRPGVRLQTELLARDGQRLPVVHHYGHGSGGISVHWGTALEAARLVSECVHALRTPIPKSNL
pKi: −log10 of the molar value.
result.type: pKi

{"smiles.code": "Nc1cncc(C(=O)O)c1", "value.reported": 5.42}

----------
molecular target: UniProt Q99489; assay: Inhibition of human recombinant DDO expressed in Escherichia coli BL21(DE3) using D-Asp and D-Ala assessed as 2-oxo acid production after 10 mins by colorimetric assay
pIC50: −log10 of the molar value.
result.type: pIC50

{"molecule": "CN(C)c1cncc(C(=O)O)c1", "value.reported": "< 3.00"}
{"molecule": "NC(=O)c1csc(C(=O)O)c1", "value.reported": "< 2.30"}
{"molecule": "Nc1ccc(C(=O)O)cn1", "value.reported": 2.63}
{"molecule": "O=C(O)c1cncc(Cl)c1", "value.reported": "< 2.00"}
{"molecule": "O=C(O)c1cncc(C(=O)O)c1", "value.reported": "< 2.00"}
{"molecule": "O=C(O)c1cc(Cl)ccc1O [5-CHLOROSALICYLIC ACID]", "value.reported": "< 2.00"}
{"molecule": "Nc1cccc(C(=O)O)n1", "value.reported": "< 4.00"}
{"molecule": "O=C(O)c1ccccc1 [BENZOIC ACID]", "value.reported": "< 2.00"}
{"molecule": "Cc1ccc(C(=O)O)c(O)n1", "value.reported": "< 2.00"}
{"molecule": "O=C(O)c1cncc(Br)c1", "value.reported": "< 2.00"}
{"molecule": "Nc1ccc(C(=O)O)nc1", "value.reported": "< 2.00"}
{"molecule": "Nc1cncc(C(=O)O)c1", "value.reported": 4.66}
